Target: T1, human PCSK9 (human, UniProt Q8NBP7 31-692, limits assumed)
T1 construct: It carried an AlexaFluor647 label in the TR-FRET assay only; also called hPCSK9; wild type human PCSK9
T1 sequence (Q8NBP7 31-692 limits assumed): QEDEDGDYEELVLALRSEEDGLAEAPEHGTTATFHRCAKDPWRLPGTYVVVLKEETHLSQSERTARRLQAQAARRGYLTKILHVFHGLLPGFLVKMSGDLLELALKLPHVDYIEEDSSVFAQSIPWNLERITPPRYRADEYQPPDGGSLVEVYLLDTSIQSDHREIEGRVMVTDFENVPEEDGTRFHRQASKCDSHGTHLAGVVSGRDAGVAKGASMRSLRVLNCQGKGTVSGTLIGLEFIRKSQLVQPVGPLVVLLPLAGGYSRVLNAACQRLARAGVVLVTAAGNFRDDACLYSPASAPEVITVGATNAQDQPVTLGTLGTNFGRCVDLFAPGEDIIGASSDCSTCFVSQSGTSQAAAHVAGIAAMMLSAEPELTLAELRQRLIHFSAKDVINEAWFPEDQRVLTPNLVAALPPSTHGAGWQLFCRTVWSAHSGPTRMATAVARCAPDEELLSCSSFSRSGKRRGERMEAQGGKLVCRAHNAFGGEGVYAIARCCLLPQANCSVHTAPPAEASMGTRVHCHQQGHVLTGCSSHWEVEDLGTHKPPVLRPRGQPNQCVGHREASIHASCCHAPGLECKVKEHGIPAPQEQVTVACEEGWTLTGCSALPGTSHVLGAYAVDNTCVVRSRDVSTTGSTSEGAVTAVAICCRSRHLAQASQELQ
Assay: SPR (Biacore); Fab captured on anti-Fab IgG, PCSK9 injected; 1:1 Langmuir fit
pKd: −log10 of the molar value.
Each item that follows carries a reported pKd.
measurement-name: pKd

AX422 Fab (Fab, V domains shown, also called AX189_VH 55N to S) VH: EVQLLESGGGLVQPGGSLRLSCKASGYTFSSYWMHWVRQAPGKGLEWIGRIDPYSGGTKYNEKFKGKATISRDNSKNTLYLQMNSLRAEDTAVYYCARYGYYLGSYAMDYWGQGTLVTVSS VL: DIQMTQSPSSLSASVGDRVTITCRASQDVSRYLTWYQQKPGKAPKLLIYAASSLQSGVPSRFSGSGSGTDFTLTISSLQPEDFATYYCQAYDYSLSGYVFGGGTKVEIK    8.39
AX421 Fab (Fab, V domains shown, also called AX189_VH 56G to E) VH: EVQLLESGGGLVQPGGSLRLSCKASGYTFSSYWMHWVRQAPGKGLEWIGRIDPYNEGTKYNEKFKGKATISRDNSKNTLYLQMNSLRAEDTAVYYCARYGYYLGSYAMDYWGQGTLVTVSS VL: DIQMTQSPSSLSASVGDRVTITCRASQDVSRYLTWYQQKPGKAPKLLIYAASSLQSGVPSRFSGSGSGTDFTLTISSLQPEDFATYYCQAYDYSLSGYVFGGGTKVEIK    8.17
AX197 Fab (Fab, V domains shown) VH: EVQLLESGGGLVQPGGSLRLSCKASGYTFSSYWMHWVRQAPGKGLEWIGRIDPYNGGTKYNEKFKGKATISRDNSKNTLYLQMNSLRAEDTAVYYCARYGYYLGSYAMDYWGQGTLVTVSS VL: DIQMTQSPSSLSASVGDRVTITCRASQAISRYLAWYQQKPGKAPKLLIYAASSLQSGVPSRFSGSGSGTDFTLTISSLQPEDFATYYCQAYDYSLGHYVFGGGTKVEIK    8.25
